molecular target: T1, cyno EpCAM (recombinant, ELISA antigen) (cynomolgus monkey); assay: ELISA with pH titration, cyno EpCAM; ratio of binding activities at pH 6.0 and pH 7.4
T1 construct: extracellular domain; also called cynomolgus EpCAM extracellular domain
T1 sequence (Q1WER1 24-265): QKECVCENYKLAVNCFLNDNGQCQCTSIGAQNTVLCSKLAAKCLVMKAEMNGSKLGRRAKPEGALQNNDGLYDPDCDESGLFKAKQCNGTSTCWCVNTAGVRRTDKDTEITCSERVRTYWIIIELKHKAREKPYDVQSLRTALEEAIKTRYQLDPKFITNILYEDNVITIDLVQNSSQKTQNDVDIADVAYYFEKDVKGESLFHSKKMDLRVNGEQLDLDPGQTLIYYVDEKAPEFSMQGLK
READOUT LABEL: ratio (pH 6.0/7.4)
Field format: numeric only.

Query: Param item = BA-105.4-01-02 8316-vcMMAE (antibody, V domains shown, antibody conjugated to vcMMAE; chain and residues of attachment not stated) VH: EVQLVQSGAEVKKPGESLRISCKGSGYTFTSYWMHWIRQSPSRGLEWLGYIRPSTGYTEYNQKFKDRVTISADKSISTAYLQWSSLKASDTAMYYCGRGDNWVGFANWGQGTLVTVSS VL: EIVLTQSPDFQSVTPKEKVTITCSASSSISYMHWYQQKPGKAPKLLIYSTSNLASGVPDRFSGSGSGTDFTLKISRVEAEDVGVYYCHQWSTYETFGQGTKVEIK ; retrieve measured ratio (pH 6.0/7.4).
Response: 2.75
